- System: Saccharomyces cerevisiae
- EXPERIMENT: protein stability index of tFT-peptide fusion (C-terminal peptide) (PSI (0-1 scale)); higher = more stable (slower turnover)
- CONDITION_INFO: genetic background: cdc53-1; temperature: 37 C
READOUT_LABEL: protein stability index
Enter the number alone.

LSVMKLFVMVGP
0.493
FSVLRLVIVSLL
0.503
RLFLLIECSSGF
0.491

// moving on: another record for protein stability index
Provide protein stability index value for the following sequence: `SFTPPRVCLCFS`
0.503

----------
- Test system: Saccharomyces cerevisiae
- EXPERIMENT: protein stability index of tFT-peptide fusion (C-terminal peptide) (PSI (0-1 scale)); higher = more stable (slower turnover)
- CONDITION_INFO: genetic background: wild type; temperature: 30 C
Measured protein stability index by item

Sample answers from the record:
FYYRYDRRTRCV
0.548
AGGVESGGRSGV
0.679
TYKNTVTRTKAY
0.658
HVPGGRADMTRS
0.706

Look up and state reported protein stability index for `LLANLRSSIDIQ`
0.709

Given `WLFGSFSLLFWL` , respond with its protein stability index.
0.522

Give protein stability index for the following sequence: `FFQSSLLFCPWR`
0.712

Report protein stability index for `PPPPPCSPPSPP`
0.681

----------
# Lookup of reported protein stability index keyed by entry
- Tested on: Saccharomyces cerevisiae
- EXPERIMENT: protein stability index of tFT-peptide fusion (C-terminal peptide) (PSI (0-1 scale)); higher = more stable (slower turnover)
- CONDITION_INFO: genetic background: wild type; temperature: 30 C
Keep it simple and answer with nothing but the number.

Use the examples below as a reference point.
SFPSLLRPPHFS
0.706
TPDVLGPLFPGD
0.642
SHSPPSPPLPPP
0.677
TRFLWYFVPTTK
0.704
PGAHPVTLTIRL
0.647
KTTSRIKEIIQK
0.606
FIICAASWFFLG
0.224

Switching to the query record.
Answer with the recorded protein stability index of `EGVSGVSLFRVL` only.
0.661

----------
Recorded protein stability index, one value per entry.
- System: Saccharomyces cerevisiae
- EXPERIMENT: protein stability index of tFT-peptide fusion (C-terminal peptide) (PSI (0-1 scale)); higher = more stable (slower turnover)
- CONDITION_INFO: genetic background: wild type; temperature: 30 C
// return a plain number; no unit text

SRVGRKVATLDQ [YAT2 C-terminal 12 aa]
0.694
DILKILSSSFHN [SPC29 C-terminal 12 aa]
0.709
NNTFLDVQAKSN [IMP1 C-terminal 12 aa]
0.712

Look up protein stability index of LPFSVEPTTSRM [YFR036W-A C-terminal 12 aa] and report it.
0.687

Entry IDTWEIKFNELF [YLR287C C-terminal 12 aa] needs its protein stability index filled in; supply it.
0.695

Give protein stability index for SVLKRVRKLFGE [VMA7 C-terminal 12 aa]
0.684

Provide only the value of recorded protein stability index for NIYNPMDEEENQ [TFB5 C-terminal 12 aa]
0.683

Tell me measured protein stability index for EFEENPNPTVEN [HSP42 C-terminal 12 aa] please.
0.702

Please list protein stability index recorded for the sequence GAQIISLDEDVF [GIP1 C-terminal 12 aa]
0.716

Tell me measured protein stability index for ISRKAGHPAPAF [YML100W-A C-terminal 12 aa] please.
0.704

----------
- Test system: Saccharomyces cerevisiae
- EXPERIMENT: protein stability index of tFT-peptide fusion (C-terminal peptide) (PSI (0-1 scale)); higher = more stable (slower turnover)
- CONDITION_INFO: genetic background: wild type; temperature: 30 C
READOUT_LABEL: protein stability index
The response must contain the number and no unit.

// solved cases for protein stability index follow
SRWHVCGWYKRR
0.682
PSSTSPPPPPPP
0.695
PKSTDVPPVRRE
0.686
HHTQPLKSIKKN
0.708
EPPELSISALGF
0.687

Indicate its recorded protein stability index; the sequence in question is `CEEQQPGFKPLL`
0.706

Specify measured protein stability index for `VRRARATLYSWL` .
0.693

Dear colleague, please send me the reported protein stability index for `VGLLGCGMNGGR` when you can.
0.701

Give protein stability index for the following sequence: `PQRPPPALACPP`
0.703

Give me measured protein stability index, please, for this sequence: `FDRAVRPSCLLL`
0.689

Quick one: give measured protein stability index for `PPPLPPRMPPPF`
0.72

Provide protein stability index value for the following sequence: `AITSPLGFGVLG`
0.717

Please report the measured protein stability index for `DFSPSPWQFTCW`
0.692

Using the record for `NNMNRKKGKKKT` , state its measured protein stability index.
0.703

Identify the reported protein stability index for the following entry. `RQKIRRKSSTKN`
0.704

Read off the recorded protein stability index for `LVLSRSGPFSHL`
0.7

For the sequence `SIIGRKVNGVSN` , give its reported protein stability index.
0.711

Tell me its protein stability index given `HPSEPCKSQILL` as the entry.
0.712

Answer with the recorded protein stability index of `GALARFEGAVRV` only.
0.702

Look up protein stability index of `SFSIPTCSVPLT` and report it.
0.687

----------
- Test system: Saccharomyces cerevisiae
- EXPERIMENT: protein stability index of tFT-peptide fusion (C-terminal peptide) (PSI (0-1 scale)); higher = more stable (slower turnover)
- CONDITION_INFO: genetic background: wild type; temperature: 30 C
READOUT_LABEL: protein stability index
Respond numerically, and do not add a unit to the figure.

AGVGPTHVRPPR
0.676

Dear colleague, please send me the reported protein stability index for `PSPVPPSPPPSP` when you can.
0.512

Please give the documented protein stability index of `RGVCVGGGCWLV`
0.624

Please supply the value of reported protein stability index for the item `FIKRINSYTGWI`
0.663

Look up and state reported protein stability index for `AGGSVCRESLEV`
0.694

----------
- Tested on: Saccharomyces cerevisiae
- EXPERIMENT: protein stability index of tFT-peptide fusion (C-terminal peptide) (PSI (0-1 scale)); higher = more stable (slower turnover)
- CONDITION_INFO: genetic background: cdc53-1; temperature: 37 C
READOUT_LABEL: protein stability index
Give the figure only, with no unit attached.

Worked examples follow.
FWLFAFVIRKHI
0.404
VGFYGRWVCVAC
0.462
NECLSSKWLRIC
0.661
LEGRFLACRGIC
0.719
LFSTRRWISVCA
0.0362

Answer with the recorded protein stability index for the sequence listed here: `SSFPGPPLPPDP`
0.74

Provide one value: measured protein stability index of `LFSCTQLLPITA`
0.077

----------
- Tested on: Saccharomyces cerevisiae
- EXPERIMENT: protein stability index of tFT-peptide fusion (C-terminal peptide) (PSI (0-1 scale)); higher = more stable (slower turnover)
- CONDITION_INFO: genetic background: wild type; temperature: 30 C
READOUT_LABEL: protein stability index

Observe how each entry below is paired with its result.
LPPPSPPPPLSP
0.621
GLYSGGLGAGVG
0.658

Moving on to another sequence below.
Report value only: protein stability index, Saccharomyces cerevisiae, `WGIQGIKFFVGA`
0.711

----------
- System: Saccharomyces cerevisiae
- EXPERIMENT: protein stability index of tFT-peptide fusion (C-terminal peptide) (PSI (0-1 scale)); higher = more stable (slower turnover)
- CONDITION_INFO: genetic background: wild type; temperature: 30 C
The reader will find reported protein stability index values listed item by item below.
When you answer, write just the number.

Sample records with protein stability index:
VCLPPPPLPPSC
0.692
PPPGPPAVANRL
0.701
PWVSGGMGKGDV
0.686
EREKKNKKGGCQ
0.69
YIKKTTPTIERG
0.716
DGWVAVGRALGG
0.704
YSRYAASYSMVV
0.688
ACTPHLPLPAPQ
0.706

Recall the reported protein stability index of `RFNLLLSATEDR` when tested on Saccharomyces cerevisiae.
0.716

# return protein stability index for `RERRGPTDLKRH` , test system: Saccharomyces cerevisiae
0.712

----------
- Tested on: Saccharomyces cerevisiae
- EXPERIMENT: protein stability index of tFT-peptide fusion (C-terminal peptide) (PSI (0-1 scale)); higher = more stable (slower turnover)
- CONDITION_INFO: genetic background: wild type; temperature: 30 C
READOUT_LABEL: protein stability index
Give only the figure.

Guide cases for protein stability index, answers given:
DTFFDRVMKVLT [NAN1 C-terminal 12 aa]
0.692
LGDSPSQGRSIS [YPK2 C-terminal 12 aa]
0.688
YIWKYYADSLFE [CSM2 C-terminal 12 aa]
0.685
YKERDLIDRSAY [VTS1 C-terminal 12 aa]
0.706
GVITPVYFPLRW [YDR215C C-terminal 12 aa]
0.715

Could you now consider this next sequence?
Fill in reported protein stability index for this entry: EDWSVEELIVDL [RPO26 C-terminal 12 aa]
0.71
